target: UGT1A9 (Homo sapiens)
Sequence (O60656 26-530): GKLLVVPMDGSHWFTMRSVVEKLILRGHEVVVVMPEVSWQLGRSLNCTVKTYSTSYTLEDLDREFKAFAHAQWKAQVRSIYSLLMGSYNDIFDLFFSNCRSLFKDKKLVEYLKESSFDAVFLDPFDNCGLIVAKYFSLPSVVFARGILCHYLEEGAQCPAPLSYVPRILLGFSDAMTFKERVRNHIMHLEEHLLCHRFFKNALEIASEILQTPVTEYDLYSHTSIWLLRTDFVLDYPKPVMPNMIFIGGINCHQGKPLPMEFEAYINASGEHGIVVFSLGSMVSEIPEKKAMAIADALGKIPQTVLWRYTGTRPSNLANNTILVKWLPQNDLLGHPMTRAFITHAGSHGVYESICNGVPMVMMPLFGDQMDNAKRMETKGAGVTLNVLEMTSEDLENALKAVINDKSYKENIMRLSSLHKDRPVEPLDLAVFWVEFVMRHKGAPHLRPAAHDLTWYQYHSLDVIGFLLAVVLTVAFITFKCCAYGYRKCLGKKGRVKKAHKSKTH
Parameter measured: pIC50
Field pIC50 (float): negative decimal logarithm of the concentration in molar.

Request: What pIC50 value was documented for this molecule, O=C(/C=C/c1ccc(O)c2c1[C@H](C(=O)O[C@H](Cc1ccc(O)c(O)c1)C(=O)O)[C@@H](c1ccc(O)c(O)c1)O2)O[C@H](Cc1ccc(O)c(O)c1)C(=O)O ?
Result: 5.52

---

target: OATP1B3 (Homo sapiens); conditions: IC50, OATP1B3 [X10], mean ± SD (n = 3)
Sequence (Q9NPD5 whole entry): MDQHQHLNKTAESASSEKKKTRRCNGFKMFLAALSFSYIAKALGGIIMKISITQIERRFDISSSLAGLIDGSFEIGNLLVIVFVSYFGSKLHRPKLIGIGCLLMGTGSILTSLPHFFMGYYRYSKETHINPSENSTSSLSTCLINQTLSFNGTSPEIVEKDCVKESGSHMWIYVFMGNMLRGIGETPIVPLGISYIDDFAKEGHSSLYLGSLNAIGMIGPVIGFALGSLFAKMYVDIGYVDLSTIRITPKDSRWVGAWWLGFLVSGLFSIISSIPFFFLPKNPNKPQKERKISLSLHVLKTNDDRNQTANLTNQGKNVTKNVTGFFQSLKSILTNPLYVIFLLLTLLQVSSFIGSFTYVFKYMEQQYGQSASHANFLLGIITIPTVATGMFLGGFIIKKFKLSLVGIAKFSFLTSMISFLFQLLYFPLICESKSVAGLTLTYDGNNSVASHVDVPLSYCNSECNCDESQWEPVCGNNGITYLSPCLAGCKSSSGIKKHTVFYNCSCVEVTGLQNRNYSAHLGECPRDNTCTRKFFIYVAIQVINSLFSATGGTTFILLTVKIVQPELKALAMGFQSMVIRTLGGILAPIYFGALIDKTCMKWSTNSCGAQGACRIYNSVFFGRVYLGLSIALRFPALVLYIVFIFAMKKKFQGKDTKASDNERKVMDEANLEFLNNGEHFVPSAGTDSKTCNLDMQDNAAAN
Starred links: 1 amine or outer side, 2 acyl side, 3 side chain; linkers in the order of their positions; H or OH if unused. Positions of bridges follow the written chain, without caps; N, C: chain ends. Non-standard residues stand in square brackets, D forms with d. Residues, ends and D or L forms follow the SMILES beside them. *: point of attachment. hTyr(3S-OH,4S-OH,3'-OSO3H) = N[C@H](C(=O)O)[C@H](O)[C@@H](O)c1ccc(O)c(OS(=O)(=O)O)c1; Orn(4R-OH,5R-OH) = O=C([C@H](C[C@@H](O)[C@@H](O)N[*:3])N[*:1])[*:2]; Pro(3S-OH,4S-Me) = C[C@H]1CN[C@H](C(=O)O)[C@H]1O; X1 = CCCCCOc1ccc(-c2cc(-c3ccc(C(=O)*)cc3)no2)cc1; Gln(3R-OH) = NC(=O)C[C@@H](O)[C@H](N)C(=O)O; Hyp = O=C(O)[C@@H]1C[C@@H](O)CN1
Parameter measured: pIC50
Field pIC50 (float): negative decimal logarithm of the concentration in molar.

Request: Request - read-out pIC50 | tested on OATP1B3 (Homo sapiens) | compound CCCCCOc1ccc(-c2cc(-c3ccc(C(=O)N[C@H]4C[C@@H](O)[C@@H](O)NC(=O)[C@@H]5[C@@H](O)[C@@H](C)CN5C(=O)[C@H]([C@H](O)CC(N)=O)NC(=O)[C@H]([C@H](O)[C@@H](O)c5ccc(O)c(OS(=O)(=O)O)c5)NC(=O)[C@@H]5C[C@@H](O)CN5C(=O)[C@H]([C@@H](C)O)NC4=O)cc3)no2)cc1 [A40, micafungin] (X1-[Orn(4R-OH,5R-OH)]T[Hyp][hTyr(3S-OH,4S-OH,3'-OSO3H)][Gln(3R-OH)][Pro(3S-OH,4S-Me)]; lactam 1-C)
Result: 5.52

Request: Request - read-out pIC50 | tested on OATP1B3 (Homo sapiens) | compound CCC(C)n1ncn(-c2ccc(N3CCN(c4ccc(OCC5COC(Cn6cncn6)(c6ccc(Cl)cc6Cl)O5)cc4)CC3)cc2)c1=O (centres unmarked)
Result: 5.40

Request: Request - read-out pIC50 | tested on OATP1B3 (Homo sapiens) | compound Cn1nnnc1SCC1=C(C(=O)O)N2C(=O)[C@@H](NC(=O)[C@H](O)c3ccccc3)[C@H]2SC1
Result: 4.28

Request: Request - read-out pIC50 | tested on OATP1B3 (Homo sapiens) | compound Cc1onc(-c2ccccc2)c1C(=O)N[C@@H]1C(=O)N2[C@@H]1SC(C)(C)[C@@H]2C(=O)O
Result: 4.96

Request: Request - read-out pIC50 | tested on OATP1B3 (Homo sapiens) | compound C[C@@H]1[C@H](O)[C@@H](C)/C=C/C=C/C=C/C=C/C=C/C=C/C=C/[C@H](O[C@@H]2O[C@H](C)[C@@H](O)[C@H](N)[C@@H]2O)C[C@@H]2O[C@](O)(C[C@@H](O)C[C@@H](O)[C@H](O)CC[C@@H](O)C[C@@H](O)CC(=O)O[C@H]1C)C[C@H](O)[C@H]2C(=O)O
Result: 6.00

Request: Request - read-out pIC50 | tested on OATP1B3 (Homo sapiens) | compound C[C@@H](c1ncncc1F)[C@](O)(Cn1cncn1)c1ccc(F)cc1F
Result: 4.72

Request: Request - read-out pIC50 | tested on OATP1B3 (Homo sapiens) | compound CO/N=C(\C(=O)N[C@@H]1C(=O)N2C(C(=O)O)=C(CSc3nc(=O)c(=O)[nH]n3C)CS[C@H]12)c1csc(N)n1
Result: 3.70

Request: Request - read-out pIC50 | tested on OATP1B3 (Homo sapiens) | compound Cc1onc(-c2c(F)cccc2Cl)c1C(=O)N[C@@H]1C(=O)N2[C@@H]1SC(C)(C)[C@@H]2C(=O)O
Result: 4.59

Request: Request - read-out pIC50 | tested on OATP1B3 (Homo sapiens) | compound CO/N=C(\C(=O)N[C@@H]1C(=O)N2C(C(=O)O)=C(COC(C)=O)CS[C@H]12)c1csc(N)n1
Result: 4.17

Request: Request - read-out pIC50 | tested on OATP1B3 (Homo sapiens) | compound CC[C@H](C)C[C@H](C)CCCCCCCCC(=O)N[C@H]1C[C@@H](O)[C@@H](NCCN)NC(=O)[C@@H]2[C@@H](O)CCN2C(=O)[C@H]([C@H](O)CCN)NC(=O)[C@H]([C@H](O)[C@@H](O)c2ccc(O)cc2)NC(=O)[C@@H]2C[C@@H](O)CN2C(=O)[C@H]([C@@H](C)O)NC1=O
Result: 6.00

Request: Request - read-out pIC50 | tested on OATP1B3 (Homo sapiens) | compound CCN1CCN(C(=O)N[C@@H](C(=O)N[C@@H]2C(=O)N3C(C(=O)O)=C(CSc4nnnn4C)CS[C@H]23)c2ccc(O)cc2)C(=O)C1=O
Result: 4.57
